Target: His-LexA (Synechocystis sp. PCC 6803) (UniProt P73722)
Sequence: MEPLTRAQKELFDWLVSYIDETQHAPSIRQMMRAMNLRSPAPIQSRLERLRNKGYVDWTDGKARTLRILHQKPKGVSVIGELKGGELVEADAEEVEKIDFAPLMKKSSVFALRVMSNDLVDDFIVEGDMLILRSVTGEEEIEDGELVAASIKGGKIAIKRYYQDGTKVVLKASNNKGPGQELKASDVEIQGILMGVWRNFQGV
Test: EMSA
Details: DIG Gel Shift Kit 2nd generation (Roche), as in Kizawa et al. (ref 9); 6% polyacrylamide gel; buffer, salt, pH and temperature not given
Experimental Endpoint: binding

- TGGGATCAAACAACAAGAAAAAATCAATTTACCCTGCCCATGGCAATAGTTTTAAGGTTAACAAAAAAAATAGAATTTACCGCAATCGACGGGTAAATTTCCAGAGGATACCCCCAACTCCAGAAGCAGAAATCTTGCCAGAAAAGCTTTTTCTGTTACTATACTTAACAAGTAACTACTTTTTCC (double strand) [PggpS]: binds
- GTGGGAAAGTTCCACCTATACCATGCCTTGAAAATTGGTATGGGTCAAATCAGATAGTTCTTTTTGACTACTAATTTTGTTGCTAGCAGCGTTGTCAATCCCATCGCTCTGGTCTGGGATGCAAATGGCAGGAAAATTCTGCTCCCCTTGGGGGAAACGAGTTACGATGGGGGCGACGTTTGCTTTGTTTGCGACATAAT (double strand) [PggtB]: binds

The origin of these recorded values is paper PMC7567884.
